measuredOn: Exonuclease I/SSB-Ct complex (Escherichia coli)
Sequence (P04995 whole entry, one chain of several): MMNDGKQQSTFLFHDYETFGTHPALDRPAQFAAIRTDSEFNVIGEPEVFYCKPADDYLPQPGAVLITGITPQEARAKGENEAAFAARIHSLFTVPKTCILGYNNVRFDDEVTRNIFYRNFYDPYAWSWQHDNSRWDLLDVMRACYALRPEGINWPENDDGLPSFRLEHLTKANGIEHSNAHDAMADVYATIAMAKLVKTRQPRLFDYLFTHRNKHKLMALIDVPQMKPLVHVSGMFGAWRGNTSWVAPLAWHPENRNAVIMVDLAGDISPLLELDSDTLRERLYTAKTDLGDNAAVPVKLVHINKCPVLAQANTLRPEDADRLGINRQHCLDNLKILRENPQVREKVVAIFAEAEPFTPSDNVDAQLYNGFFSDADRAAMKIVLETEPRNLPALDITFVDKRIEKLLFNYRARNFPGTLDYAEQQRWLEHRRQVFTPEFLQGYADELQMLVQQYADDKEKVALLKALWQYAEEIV
assayNotes: Fluorescence polarization competition: inhibition of fluorescein-SSB C-terminal peptide binding to Exonuclease I (HTS and Ki determination)
settings: Ki estimates, Table 2
quantityMeasured: pKi
// pKi is dimensionless: -log10 of concentration (M)

**Query** Determine from records and report pKi for COc1ccc(Nc2cc(C(F)(F)F)ccc2Cl)c(C(=O)O)c1 [Compound 10]
**Result** 6.46

**Query** Determine from records and report pKi for O=C(O)c1ccccc1Nc1cccc(C(F)(F)F)c1 [Compound 32]
**Result** 5.82

**Query** Determine from records and report pKi for O=[N+]([O-])c1ccc(Oc2cc(C(F)(F)F)ccc2Cl)cc1O [Compound 37]
**Result** 6.15

**Query** Determine from records and report pKi for O=C(O)C(Cc1ccccc1)N1C(=O)/C(=C/c2cccc(Br)c2)SC1=S (stereo not shown) [Compound 3]
**Result** 5.60

**Query** Determine from records and report pKi for CC1=NN(c2nc3ccc(Cl)cc3s2)C(=O)C1 [Compound 46]
**Result** 5.82

**Query** Determine from records and report pKi for CC(C)(C)C1=NN(c2nc3ccc(Cl)cc3s2)C(=O)C1 [Compound 9]
**Result** 5.66

**Query** Determine from records and report pKi for CC(/C=C1\SC(=S)N(C(C(=O)O)c2ccccc2)C1=O)=C\c1ccccc1 (stereo not shown) [Compound 8]
**Result** 5.40
